In this section, each of the compounds is paired with its reported EC50.
Tested on: L. major promastigote
Procedure Summary: L. major promastigote assay
Assay type: cell-based

| Compound | System Name | EC50 |
| --- | --- | --- |
| O=S(=O)(c1ccc(-c2ccc3ncnc(Nc4ccc(OCc5cccc(F)c5)c(Cl)c4)c3c2)cc1)N1CCCC1 [Compound 10n] | L. major promastigote | > 15 µM |
| Fc1cccc(COc2ccc(Nc3ncnc4ccc(-c5ccc(N6CCNCC6)cc5)cc34)cc2Cl)c1 | L. major promastigote | > 15 µM |
| O=S(=O)(c1cccc(-c2ccc3ncnc(Nc4ccc(OCc5cccc(F)c5)c(Cl)c4)c3c2)c1)N1CCCC1 [Compound 10o] | L. major promastigote | > 15 µM |
